- System: RXF 393
- Protocol Text: NCI tumour cell line growth inhibition, 48 h
Active and inactive are the calls of the source. Rule as the data show it: active = GI50 up to about 1.1 µM and inactive = higher.
// one of label 1 = active, label 0 = inactive, no free text

Please review the entries below; each comes with its answer.
>>> category_label("CCOC(=O)C1C(c2ccccc2)=C(c2ccccc2)C(c2ccccc2)=C1c1ccccc1")
"label 0"
>>> category_label("O=C(O)CCC(NC(=O)c1ccc(Nc2nc3ccc(C(F)(F)F)cc3nc2-c2ccccc2)cc1)C(=O)O (stereo not drawn)")
"label 0"
>>> category_label("O=C1NC(=S)N/C1=C\\c1ccc(Sc2ccccc2C(=O)O)s1")
"label 0"

Ask | Give the logged outcome of this assay for the following compound: COC(=O)C(Cc1ccccc1)NS(=O)(=O)c1ccc(-c2c3nc(c(-c4ccc(S(=O)(=O)NC(Cc5ccccc5)C(=O)OC)cc4)c4ccc([nH]4)c(-c4ccc(S(=O)(=O)NC(Cc5ccccc5)C(=O)OC)cc4)c4nc(c(-c5ccc(S(=O)(=O)NC(Cc6ccccc6)C(=O)OC)cc5)c5ccc2[nH]5)C=C4)C=C3)cc1 (stereo not drawn)
Reply | label 0

Ask | Check the results log: what was the call for FC(F)(F)c1cccc(-c2nc3ccccc3c3c2[C@@]2(N4CCCC4)CCCC[C@@H]32)c1 ?
Reply | label 0

Ask | Test call, this compound: CCOC(=O)N[C@H]1CCc2cc(O)c(OC)c(OC)c2-c2ccc(SC)c(=O)cc21
Reply | label 1

Ask | # fetch the recorded call for CN(C)CCC(=O)N1C/C(=C\c2ccc(Cl)c(Cl)c2)C(=O)/C(=C/c2ccc(Cl)c(Cl)c2)C1 here
Reply | label 1

Ask | What did this assay record as the result for COc1cc(/C=N\N(C)C)cc(/C=N/N(C)C)c1O ?
Reply | label 0
